Assign IC50 to each entry below.
Tested on: SNU-C1
protocol: cells
Type: cell-based
condition.parameters: Homo sapiens, SNU-C1, read-out: Basal_Viability ATP SNU-C1
The answer is to be given in µM; state only the numeric part.

Reported IC50 ( CO[C@@]12[C@H](COC(N)=O)C3=C(C(=O)C(C)=C(N)C3=O)N1C[C@@H]1N[C@@H]12 ) = 8.13

Reported IC50 ( O=C(O)c1ccc(-n2nc(-c3ccccc3O)nc2-c2ccccc2O)cc1 ) = 0.233

Reported IC50 ( CC(C)C[C@H](NC(=O)[C@H](Cc1ccccc1)NC(=O)c1cnccn1)B(O)O [bortezomib, reference compound] ) = 0.0032

---

System: INS-1E cells
protocol: cells
Assay type: cell-based, rat
condition.parameters: assay number 8; 5 mM glucose
Assign class by 5mMGluc_INS1E SecretionMod IC50/EC50: not lower than 10 µM means TRUE; lower than 10 µM means FALSE.

Could you please find out whether CC(C)(C)c1nnc(NS(=O)(=O)c2ccccc2)s1 has 5mMGluc_INS1E SecretionMod IC50/EC50 that meets 10 µM or exceeds it?
TRUE

Could you please find out whether Cc1cc2c(OCC(CNC(C)(C)C)OC(=O)c3ccccc3)cccc2[nH]1 (stereo not shown) has 5mMGluc_INS1E SecretionMod IC50/EC50 that meets 10 µM or exceeds it?
TRUE

Could you please find out whether CN(C)CC[C@H](c1ccc(Cl)cc1)c1ccccn1 has 5mMGluc_INS1E SecretionMod IC50/EC50 that meets 10 µM or exceeds it?
TRUE

Could you please find out whether CN1C(=O)CC[C@H]1c1cccnc1 has 5mMGluc_INS1E SecretionMod IC50/EC50 that meets 10 µM or exceeds it?
TRUE

Could you please find out whether CCN(CC)CCNC(=O)c1c(C)[nH]c(/C=C2\C(=O)Nc3ccc(F)cc32)c1C has 5mMGluc_INS1E SecretionMod IC50/EC50 that meets 10 µM or exceeds it?
TRUE

Could you please find out whether COc1ccc2c(c1)C(=O)N(CCc1ccc(S(=O)(=O)NC(=O)NC3CCCCC3)cc1)C(=O)C2(C)C has 5mMGluc_INS1E SecretionMod IC50/EC50 that meets 10 µM or exceeds it?
FALSE

Could you please find out whether CCN(CC)CCOc1ccc(Cc2ccccc2)cc1 has 5mMGluc_INS1E SecretionMod IC50/EC50 that meets 10 µM or exceeds it?
TRUE

Could you please find out whether CCN(CC)CCNC(C(=O)OCCC(C)C)c1ccccc1 (stereo not shown) has 5mMGluc_INS1E SecretionMod IC50/EC50 that meets 10 µM or exceeds it?
TRUE

Could you please find out whether Clc1ccc2c(c1)CCc1cccnc1C2=C1CCNCC1 has 5mMGluc_INS1E SecretionMod IC50/EC50 that meets 10 µM or exceeds it?
FALSE

Could you please find out whether CN(C)CC/C=C1\c2ccccc2Sc2ccc(Cl)cc21 has 5mMGluc_INS1E SecretionMod IC50/EC50 that meets 10 µM or exceeds it?
TRUE

Could you please find out whether CCCCCCCCCCCCCCCCCCNC(=O)OC1CCN(C(=O)OC[C@H](COC(=O)N(Cc2cccc[n+]2CC)C(=O)c2ccccc2OC)OC)CC1.[Cl-] has 5mMGluc_INS1E SecretionMod IC50/EC50 that meets 10 µM or exceeds it?
TRUE

Could you please find out whether Cc1ccc(O)cc1 has 5mMGluc_INS1E SecretionMod IC50/EC50 that meets 10 µM or exceeds it?
TRUE

Could you please find out whether C/C(=C(\CCOC(=O)C(C)C)SS/C(CCOC(=O)C(C)C)=C(/C)N(C=O)Cc1cnc(C)nc1N)N(C=O)Cc1cnc(C)nc1N has 5mMGluc_INS1E SecretionMod IC50/EC50 that meets 10 µM or exceeds it?
TRUE

Could you please find out whether O=C(CCCN1CCC(O)(c2ccc(Br)cc2)CC1)c1ccc(F)cc1 has 5mMGluc_INS1E SecretionMod IC50/EC50 that meets 10 µM or exceeds it?
TRUE

Could you please find out whether Cc1ccc([N+](=O)[O-])[c]2c1[O][Hg]2 has 5mMGluc_INS1E SecretionMod IC50/EC50 that meets 10 µM or exceeds it?
TRUE

Could you please find out whether C[C@@H](C1=C(CCN(C)C)Cc2ccccc21)c1ccccn1.O=C(O)/C=C\C(=O)O has 5mMGluc_INS1E SecretionMod IC50/EC50 that meets 10 µM or exceeds it?
FALSE

---

Test system: HCT116
protocol: cells
Type: cell-based
condition.parameters: basal; read-out: Basal_Viability ATP HCT116
attribute.measured: IC50 (µM)
The answer is to be given in µM; state only the numeric part.

Reported IC50 ( Cc1cc(O)c2ccccc2c1O ) = 1.49

Reported IC50 ( O=C(c1cc(O)c(O)c(O)c1)c1ccc(O)c(O)c1O [Hexahydro-2,3,4,3',4',5'-benzophenone] ) = 16.3

---

System: HCT116 cells treated with a GSK3β inhibitor
protocol: cells
Format: cell-based
condition.parameters: Homo sapiens, HCT-116, read-out: HCT-116 (GSK3β) viab. IC50; Table 2; GSK3β inhibitor LY2090314 20 nM; 72 h, Cell TiterGlo; 20 coded
Assign IC50 to each entry below.

Reported IC50 ( CCC(C)(C)C(=O)O[C@H]1C[C@@H](C)C=C2C=C[C@H](C)[C@H](CC[C@@H]3C[C@@H](O)CC(=O)O3)[C@H]21 [simvastatin, reference compound] ) = 4.7 µM

Reported IC50 ( COc1ccc(Cl)cc1C(=O)NCCc1ccc(S(=O)(=O)NC(=O)NC2CCCCC2)cc1 [glibenclamide, reference compound] ) = > 20 µM

Reported IC50 ( Cc1ccc(S(=O)(=O)NC(=O)NN2CC3CCCC3C2)cc1 (stereo not shown) [gliclazide, reference compound] ) = > 20 µM

Reported IC50 ( CCOc1cc(CC(=O)N[C@@H](CC(C)C)c2ccccc2N2CCCCC2)ccc1C(=O)O [repaglinide, reference compound] ) = > 20 µM

---

Test system: HeLa cells
protocol: cells
Assay type: cell-based
condition.parameters: assay number 18; cell number; read-out: Hela CellCycMod PI Cell Number summarized IC50
Assign IC50 to each entry below.

Reported IC50 ( CCCCCCCCCCCCCCCC[n+]1ccccc1 ) = 0.405 µM

Reported IC50 ( CCOc1ccc2nc3cc(N)ccc3c(N)c2c1 ) = 2.11 µM

Reported IC50 ( O=C(O)CCc1nc2ccccc2[nH]1 ) = > 10 µM

Reported IC50 ( O=C(O)CN(CCN(CC(=O)O)CC(=O)O)CCN(CC(=O)O)CC(=O)O ) = > 10 µM

Reported IC50 ( CCCCCCCCCCCC(=O)[O][Sn]([CH2]CCC)([CH2]CCC)[O]C(=O)CCCCCCCCCCC ) = > 10 µM

Reported IC50 ( CCCCOC(=O)c1ccc(N)cc1 ) = > 10 µM

Reported IC50 ( O=C1c2c(O)cccc2Cc2cccc(O)c21 ) = > 10 µM

Reported IC50 ( CCCCCCCCCCCC[N+](C)(C)Cc1ccccc1 ) = > 10 µM

Reported IC50 ( O=C1C2CC=CCC2C(=O)N1SC(Cl)(Cl)Cl (stereo not shown) ) = 1.79 µM

Reported IC50 ( CN(Cc1cnc2nc(N)nc(N)c2n1)c1ccc(C(=O)N[C@@H](CCC(=O)O)C(=O)O)cc1 ) = > 10 µM

---

Test system: HeLa cells
protocol: cells
Assay type: cell-based
condition.parameters: Cell Number
attribute.measured: IC50/EC50, Hela CellCycMod PI Cell Number (assay number 18) (µM)
The answer is to be given in µM; state only the numeric part.

Reported IC50/EC50, Hela CellCycMod PI Cell Number (assay number 18) ( CCCCc1ccc2nc(NC(=O)OC)[nH]c2c1 ) = 0.00566

Reported IC50/EC50, Hela CellCycMod PI Cell Number (assay number 18) ( CCN1/C(=C/C=C/c2sc3ccccc3[n+]2CC)Sc2ccccc21.[I-] ) = 0.03604

Reported IC50/EC50, Hela CellCycMod PI Cell Number (assay number 18) ( CCN(CC)CCNc1ccc(CO)c2sc3ccccc3c(=O)c12 ) = 5.9199

---

Tested on: tonic K+ channel activity in INS-1E cells
protocol: cells
Format: cell-based, rat
condition.parameters: Rattus norvegicus, INS-1E, read-out: K+ channel assay IC50
attribute.measured: IC50

Tested system tonic K+ channel activity in INS-1E cells; IC50 recorded for CC(CC1c2ccccc2CCc2ccccc21)CN(C)C (stereo not shown) [butriptyline, reference compound] was > 20 µM

---

Assign pIC50 to each entry below.
Tested on: DLD-1
protocol: cells
Format: cell-based
condition.parameters: assay number 23; basal; read-out: Basal_Viability ATP DLD-1 summarized IC50
pIC50 (log units): -log10 of the concentration in mol/L.

Reported pIC50 ( CN(C)c1ccc(C(=C2C=CC(=[N+](C)C)C=C2)c2ccc(N(C)C)cc2)cc1 ) = 6.33

Reported pIC50 ( Oc1c(Cl)cc(Cl)cc1Sc1cc(Cl)cc(Cl)c1O ) = 9.00

Reported pIC50 ( O=C(O)CCc1nc2ccccc2[nH]1 ) = 5.62

Reported pIC50 ( S=c1nc[nH]c2nc[nH]c12 ) = 6.59

Just for reference, paper PMC4503722 is where these values come from.
